Reference source for all entries: patent US20240002375A1

Listed next: entries and their corresponding IC50.
System: HTT mRNA
Test: Splicing assay (RT-qPCR) of HTT mRNA alternative junction (AJ) and canonical junction (CJ)
Assay type: cell-based
Details: decrease in CJ mRNA; A673 or K562 cells, 24 hours; read-out: HTT CJ IC50
Description: Compounds described herein were used to modulate RNA transcript abundance in cells. The expression of a target mRNA was measured by detecting the formation of an exon-exon junction in the canonical transcript (CJ). A compound mediated exon-inclusion event was detected by observing an increase in formation of a new junction with an alternative exon (AJ). […] After treatment, the levels of the HTT mRNA targets were determined from each sample of cell lysate by cDNA synthesis followed by qPCR. […]

Worked examples, 3 compounds total:
Compound: Cn1cc2cc(-c3ccc4nc(C5CCNCC5)ccc4n3)c(F)cc2n1
Value Observed: 1 to 10 µM

Compound: COc1cc2nn(C)cc2cc1-c1ccc2cc(C3CCNCC3)c(F)cc2n1
Value Observed: > 10 µM

Compound: Cn1cc2cc(-c3ccc4nc(N5CC[C@@H](NC6(C)CC6)C5)ccc4n3)c(O)cc2n1 (single isomer, unassigned)
Value Observed: < 0.1 µM

Now for the compound whose IC50 we want.
Incoming: # IC50 lookup, item Cn1cc2cc(-c3ccc4nc(N5CCC(NC(C)(C)C)CC5)ccc4n3)c(O)cc2n1
Outgoing: > 10 µM
